Collected EC50 values appear next to each entry.
molecular target: T1, Recombinant human bFGF (human, UniProt P09038 143-288, limits assumed); test: ELISA, coated human bFGF
T1 construct: Bought (Sigma); also called hFGF-2; human basic fibroblast growth factor
T1 sequence (P09038 143-288 limits assumed): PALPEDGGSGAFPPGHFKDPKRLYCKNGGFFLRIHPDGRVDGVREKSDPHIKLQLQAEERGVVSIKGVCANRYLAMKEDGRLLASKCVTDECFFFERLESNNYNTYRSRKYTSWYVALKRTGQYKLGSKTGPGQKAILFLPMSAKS
Entry rule: numbers only, all in nM.

Here are 2 binders together with their reported answers.
* Nb-F3\cmycH6 (VHH, Nb-F3 without c-myc tracer peptide and histidine tag) VHH: QVQLVESGGGLVQPGGSLRLSCAASGTEDGRLLTLGGSWFRQAPGQGLEAVAAIGAGDRGGATYYADSVKGRFTISRDNSKNTLYLQMNSLRAEDTAVYYCTALYERQPQLAATKVARKWGQGTLVTVSS | 11.5
* Nb-VF3\cmycH6 (bispecific antibody, Nb-VF3 without c-myc tracer peptide and histidine tag) QVQLVESGGGLVQPGGSLRLSCAASGNSAEDRLYNSYTWFRQAPGQGLEAVAAISSHFSAGLTYYADSVKGRFTISRDNSKNTLYLQMNSLRAEDTAVYYCEITSHASHNDAWSTPRTVWGQGTLVTVSSAHHSEDPSSKAPKAPAQVQLVESGGGLVQPGGSLRLSCAASGTEDGRLLTLGGSWFRQAPGQGLEAVAAIGAGDRGGATYYADSVKGRFTISRDNSKNTLYLQMNSLRAEDTAVYYCTALYERQPQLAATKVARKWGQGTLVTVSS | 11.5

Moving on to another binder below.
## Task Need EC50 of Nb-FV1\cmycH6 (bispecific antibody, Nb-FV1 without c-myc tracer peptide and histidine tag) QVQLVESGGGLVQPGGSLRLSCAASGTEDGRLLTLGGSWFRQAPGQGLEAVAAIGAGDRGGATYYADSVKGRFTISRDNSKNTLYLQMNSLRAEDTAVYYCTALYERQPQLAATKVARKWGQGTLVTVSSAHHSEDPSSKAPKAPAQVQLVESGGGLVQPGGSLRLSCAASGNSAEDRLYNSYTWFRQAPGQGLEAVAAISSHFSAGLTYYADSVKGRFTISRDNSKNTLYLQMNSLRAEDTAVYYCEITSHASHNDAWSTPRTVWGQGTLVTVSS , thanks.
## Result 11.8
